Experiment: Photophysical measurement
Format: physicochemical
As shown below, each of these compounds has a reported λem value.
Answer with the value and then the unit.

Below: 2 compounds and their reported λem.
[Q] Value lookup for λem; key = Cc1c(C)c2cccnc2c2ncccc12.Cc1c[c-]c(-c2ccccn2)cc1.Cc1c[c-]c(-c2ccccn2)cc1.F[P-](F)(F)(F)(F)F.[Ir+3]
[A] 577 nm

[Q] Here is the next compound: F[P-](F)(F)(F)(F)F.c1cc[c]2c(c1)-c1ccc3ccccc3[n+]1[Ir-3]213([c]2ccccc2-c2ccc4ccccc4[n+]21)[n+]1cccc2c4nccnc4c4ccc[n+]3c4c21
[A] 568 nm

Continuing:
[Q] Look up λem: F[P-](F)(F)(F)(F)F.c1ccc(-c2cc[n+]3c(c2)-c2cc(-c4ccccc4)cc[n+]2[Ir-3]324([c]3ccccc3-c3ccc5ccccc5[n+]32)[c]2ccccc2-c2ccc3ccccc3[n+]24)cc1
[A] 560 nm

###

Assay: Photophysical measurement
Type: physicochemical
Conditions: reference [Ru(bpy)3][PF6]2 in degassed acetonitrile
recorded metric: Quantum yield
When you answer, write just the number.

Below, each entry is followed by its recorded Quantum yield result.
[Q] Please look up its Quantum yield: Cc1cc(-c2ccccc2)c2ccc3c(-c4ccccc4)cc(C)[n+]4c3c2[n+]1[Ir-3]412([c]3ccccc3-c3ccc4ccccc4[n+]31)[c]1ccccc1-c1ccc3ccccc3[n+]12.F[P-](F)(F)(F)(F)F
[A] 0.063

[Q] Another compound to check: Cc1cccc2[n+]1[Ir-3]13([c]4ccccc4-2)([c]2ccccc2-c2cccc(C)[n+]21)[n+]1ccc(-c2ccccc2)c2ccc4c(-c5ccccc5)cc[n+]3c4c21.F[P-](F)(F)(F)(F)F
[A] 0.12

[Q] # iterate: F[P-](F)(F)(F)(F)F.[Ir+3].[c-]1ccccc1-c1ccc2ccccc2n1.[c-]1ccccc1-c1ccc2ccccc2n1.c1cnc2c(c1)ccc1cccnc12
[A] 0.12

[Q] Do the same for Cc1c(C)c2cccnc2c2ncccc12.Cc1c[c-]c(-c2ccccn2)cc1.Cc1c[c-]c(-c2ccccn2)cc1.F[P-](F)(F)(F)(F)F.[Ir+3] please
[A] 0.057

[Q] Try the compound Clc1cc2cccnc2c2ncccc12.F[P-](F)(F)(F)(F)F.[Ir+3].[c-]1ccccc1-c1ccc2ccccc2n1.[c-]1ccccc1-c1ccc2ccccc2n1
[A] 0.056

# input for lookup
[Q] Quick check: Quantum yield of Clc1cc2ccc[n+]3c2c2c1ccc[n+]2[Ir-3]312([c]3ccccc3-c3[nH]c4ccccc4[n+]31)[c]1ccccc1-c1[nH]c3ccccc3[n+]12.F[P-](F)(F)(F)(F)F ?
[A] 0.092

###

Measured Lifetime by item
Experiment: Photophysical measurement
Assay type: physicochemical
Protocol: Emission spectra and lifetime measurements for complexes were performed on a PTI TimeMaster C720 Spectrometer (Nitrogen laser: pulse output 337 nm) fitted with a 380 nm filter. Error limits were estimated: λ (±1 nm); τ (±10%); φ (±10%). […] Luminescence quantum yields were determined using the method of Demas and Crosby [Ru(bpy)3][PF6]2 in degassed acetonitrile as a standard reference solution (Φr=0.062) and calculated according to the following equation: […]
Form entry: value (μs) — number only.

[Q] So what's the measured Lifetime for this one? Clc1cc2cccnc2c2ncccc12.F[P-](F)(F)(F)(F)F.[Ir+3].[c-]1ccccc1-c1ccccn1.[c-]1ccccc1-c1ccccn1 [Complex 17]
[A] 2.87

[Q] // query: Clc1cc2cccnc2c2ncccc12.F[P-](F)(F)(F)(F)F.[Ir+3].[c-]1ccccc1-c1ccc2ccccc2n1.[c-]1ccccc1-c1ccc2ccccc2n1 [Complex 7]
[A] 1.34

Now examine the next entry.
[Q] What Lifetime value was documented for this compound, F[P-](F)(F)(F)(F)F.c1cc[c]2c(c1)-c1ccc3ccccc3[n+]1[Ir-3]213([c]2ccccc2-c2ccc4ccccc4[n+]21)[n+]1cccc2c4nccnc4c4ccc[n+]3c4c21 [Complex 13] ?
[A] 4.61
